# System: K-562 leukemia
# procedure-details: NCI-60 one-dose screen, 48 h (100 = growth as untreated, 0 = no growth, -100 = all killed)
# details: 10 µM unless noted
This is part of a sample that, as a whole, favours compounds with a hit. Of some 83,000 tested, about 20% had one in any assay.
Classify: 1.0 when growth is strictly less than 50%; 0.0 when growth is not.

Cc1cc(C)c2sc(=O)n(Cc3nnc(SCCC(=O)O)o3)c2n1 :: 0.0
Cc1[nH]c(C(=O)Nc2ccccc2OCc2cccc(C(=O)N3CCC[C@@H](N)C3)c2)c(Cl)c1Cl :: 1.0
O=S(=O)(NCCNc1nccc(-n2cnc3ccccc32)n1)c1ccc(Cl)cc1 :: 0.0

Incoming: Regarding Fc1ccc(-c2cc3nc(C(Cl)Cl)nc(-c4ccco4)n3n2)cc1 , kindly confirm whether its growth is beneath 50%.
Outgoing: 1.0

Incoming: Try this compound too: CCCCc1nc(/C=N/Nc2nc(Nc3ccccc3)nc(Nc3ccc(S(N)(=O)=O)cc3)n2)c(Cl)[nH]1
Outgoing: 1.0

Incoming: Try this compound too: Cc1ccc(NC(=S)NNC(=S)Nc2ccc(C)cc2)cc1
Outgoing: 0.0

Incoming: Try this compound too: O=C1Nc2ccccc2/C1=C/c1ccc(CO)n1-c1ccc(Cl)cc1
Outgoing: 1.0

Incoming: Try this compound too: C=CCn1c(SCC(=O)Nc2ccc(C(=O)/C=C/c3ccc(C)cc3)cc2)nnc1-c1c[nH]c2ccccc12
Outgoing: 0.0

Incoming: Try this compound too: COc1ccccc1-n1cc(C#N)c(N)c1C(=O)c1ccc(Cl)cc1
Outgoing: 1.0

Incoming: Try this compound too: COc1ccccc1-n1cc(C#N)c(N)c1C(=O)c1ccc(Br)cc1
Outgoing: 1.0

* * *

# Tested on: A549/ATCC NSCLC
# procedure-details: NCI-60 one-dose screen, 48 h (100 = growth as untreated, 0 = no growth, -100 = all killed)
# details: 10 µM unless noted
The panel holds about 83,000 compounds, 20% with a hit somewhere; the sample as a whole holds those more often.
measure: growth (%)
Your answer should be a plain number; it is taken to be in %.

COc1cc(-c2nc3sccn3c2-c2ccnc(S(C)(=O)=O)n2)ccc1F :: 94.2
COc1ccc(NC(=O)CSc2nnc(-c3ccc4nc(-c5ccc(OC)c(OC)c5)[nH]c4c3)o2)cc1OC :: 101
Cn1ccnc1C(=O)/C=C/c1ccc(NC(=O)c2c(F)c(F)c(F)c(F)c2F)cc1 :: 101

Incoming: Using the record for C=CCn1c(SCC(=O)Nc2ccc(C(=O)/C=C/c3cccc([N+](=O)[O-])c3)cc2)nnc1-c1c[nH]c2ccccc12 , report its growth.
Outgoing: 93.9

Incoming: Try this compound too: N#Cc1c(Nc2ccccc2)nn2c(-c3ccc([N+](=O)[O-])cc3)ccnc12
Outgoing: 94.4

* * *

# Test system: SW-620 colon
# procedure-details: NCI-60 one-dose screen, 48 h (100 = growth as untreated, 0 = no growth, -100 = all killed)
# details: 10 µM unless noted
About 83,000 compounds went through this panel and 20% of them were active in at least one assay; those are over-represented in the sample as a whole.
List of growth values.
Your answer should be a plain number; it is taken to be in %.

Known growth results, listed for orientation:
CCC(CC)N1C(=O)/C(=c2\sc3n(c2=O)NC2C(N=3)N(CC)C(=O)N2CC)c2ccccc21 (configuration not stated) :: 48.2
CC1(C)[C@@H](O)CC[C@]2(C)[C@H]3CC[C@@H]4[C@H]5[C@H](C(=O)/C=C\c6ccncc6)CC[C@]5(O)CC[C@@]4(C)[C@]3(C)CC[C@@H]12 :: 26.5
COc1ccc(Cn2cc3c(c2-c2cc(OC)c(OC)c(OC)c2)CCc2c(CN4CCOCC4)noc2-3)cc1 :: 30.4
NC(N)=Nc1ccc(Oc2cccc(NC(N)=Nc3ccc(I)cc3F)c2)cn1 :: 76.3
N#Cc1c(-c2cccs2)cc(-c2cnccn2)nc1SCC(=O)c1ccc(F)cc1 :: 96.7

Incoming: Using the record for CCOC(=O)C(=O)CC(=O)N1C(=S)NC(=O)C1CC(C)C (configuration not stated) , report its growth.
Outgoing: 106

Incoming: Try this molecule too: CCCCCCCn1cc2c(NCCc3ccccc3)ncnc2n1
Outgoing: 92.8
